molecular target: HLA-A*0301 (human)
measured_attribute: binding affinity ratio (IC50 of standard peptide / IC50 of test peptide)

binder | observed_result
NLEDPASR (modifications not checked) [HBV NUC 75 NLEDPASR] | -0.0002
LVVDFSQF (modifications not checked) [HBV POL 377 LWDFSQF] | 0.0016
LTVNEKRR (modifications not checked) [HBV POL 99 LTVNEKRR] | -0.0002
LVPFVQWF (modifications not checked) [HBV ENV 339 LVPFVQWF] | 0.0028
NLNVSIPWTHK (modifications not checked) [HBV POL 45 …] | -0.0009
SAGPCALRF (modifications not checked) [HBV X 65 …] | -0.0003
SALNPADDPSR (modifications not checked) [HBV POL 771 …] | -0.0004
NSVVLSRK (modifications not checked) [HBV POL 738 NSVVLSRK] | 0.0006
RTPSPRRR (modifications not checked) [HBV NUC 188 RTPSPRRR] | -0.0002
SSAGPCALRF (modifications not checked) [HBV X 64 …] | -0.0003
